Measured Crabgrass, Brazil plant response rating of individual entries
Test system: Brazilian crabgrass
assay name: Test E preemergence
Assay type: in vivo, Digitaria horizontalis
conditions used: 62 g ai/ha, scale 0 to 100 (0 no effect, 100 complete control)
Please reply with the number alone, leaving off any unit.

Qu. Item FC(F)(F)c1cnn(-c2c(Cl)cccc2Oc2ncc(Cl)cn2)c1 [Compound 167] has what recorded Crabgrass, Brazil plant response rating?
Ans. 75

Qu. Item N#Cc1cccc(Oc2ncc(F)cn2)c1-n1cc(Cl)cn1 [Compound 73] has what recorded Crabgrass, Brazil plant response rating?
Ans. 100

Qu. Item Fc1cccc(Oc2ncc(Cl)cn2)c1-n1cc(I)cn1 [Compound 179] has what recorded Crabgrass, Brazil plant response rating?
Ans. 65

Qu. Item N#Cc1cccc(Oc2ncc(F)cn2)c1-n1cc(I)cn1 [Compound 86] has what recorded Crabgrass, Brazil plant response rating?
Ans. 75

* * *

System: surinam grass
assay name: Test E preemergence
Format: in vivo, Brachiaria decumbens
conditions used: 62 g ai/ha, scale 0 to 100 (0 no effect, 100 complete control)
endpoint name: Surinam Grass plant response rating

Below, each entry is followed by its recorded Surinam Grass plant response rating result.
N#Cc1cccc(Oc2ncc(Br)cn2)c1-n1cc(I)cn1 [Compound 88]: 0
CCOc1cnn(-c2c(C#N)cccc2Oc2ncc(F)cn2)c1 [Compound 89]: 0

Qu. Tell me reported Surinam Grass plant response rating for N#Cc1cnn(-c2c(CF)cccc2Oc2ncc(F)cn2)c1 [Compound 151] , tested with surinam grass.
Ans. 35

Qu. Tell me reported Surinam Grass plant response rating for FC(F)c1cccc(Oc2ncc(Cl)cn2)c1-n1cc(Br)cn1 [Compound 194] , tested with surinam grass.
Ans. 0

Qu. Tell me reported Surinam Grass plant response rating for FC(F)(F)c1cnn(-c2c(Cl)cccc2Oc2ncc(Cl)cn2)c1 [Compound 167] , tested with surinam grass.
Ans. 0

* * *

Test system: pigweed
assay name: Test A preemergence
Assay type: in vivo, Amaranthus retroflexus
conditions used: 500 g ai/ha, 0 to 100 scale where 0 is no effect and 100 is complete control
endpoint name: Pigweed plant response rating
Please reply with the number alone, leaving off any unit.

Below, each entry is followed by its recorded Pigweed plant response rating result.
C#Cc1cnn(-c2ccccc2Oc2ncc(Cl)cn2)c1: 100
Clc1cnc(Oc2cccc(Cl)c2-n2cc(Br)cn2)nc1: 100
FC(F)(F)c1cnn(-c2c(Cl)cccc2Oc2ncc(Br)cn2)c1: 100
O=Cc1cccc(Oc2ncc(Br)cn2)c1-n1cc(I)cn1: 90
O=Cc1cccc(Oc2ncc(F)cn2)c1-n1cc(C(F)(F)F)cn1: 100

Qu. Item `FC(F)c1cccc(Oc2ncc(Br)cn2)c1-n1cc(Br)cn1` has what recorded Pigweed plant response rating?
Ans. 100

Qu. Item `CS(=O)(=O)c1cccc(Oc2ncc(Cl)cn2)c1-n1cc(Br)cn1` has what recorded Pigweed plant response rating?
Ans. 0

Qu. Item `CON=Cc1cccc(Oc2ncc(Cl)cn2)c1-n1cc(Br)cn1` has what recorded Pigweed plant response rating?
Ans. 100

Qu. Item `CC#Cc1cnn(-c2ccccc2Oc2ncc(Cl)cn2)c1` has what recorded Pigweed plant response rating?
Ans. 100

* * *

System: wheat
assay name: Test A postemergence
Format: in vivo, Triticum aestivum
conditions used: 31 g ai/ha, 0 to 100 scale, 0 no effect, 100 complete control
endpoint name: Plant response rating, Wheat
Please reply with the number alone, leaving off any unit.

Below, each entry is followed by its recorded Plant response rating, Wheat result.
Fc1cnc(Oc2cccc(F)c2-n2cc(OCC(F)(F)F)cn2)nc1: 0
FCc1cccc(Oc2ncc(F)cn2)c1-n1cc(C(F)(F)F)cn1: 20
FCc1cccc(Oc2ncc(Br)cn2)c1-n1cc(Br)cn1: 0
CC(C)Cc1cn(-c2c(F)cccc2Oc2ncc(Cl)cn2)nn1: 10
Fc1cnc(Oc2ccccc2-n2cc(OCC(F)(F)F)cn2)nc1: 0

Qu. Item `Cc1cc(C(F)F)nn1-c1ccccc1Oc1ncc(Cl)cn1` has what recorded Plant response rating, Wheat?
Ans. 0

Qu. Item `FC(F)(F)COc1cnn(-c2c(Br)cccc2Oc2ncc(Cl)cn2)c1` has what recorded Plant response rating, Wheat?
Ans. 0

* * *

Measured Morningglory plant response rating of individual entries
Tested on: morningglory
assay name: Test A postemergence
Format: in vivo, Ipomoea spp.
conditions used: 125 g ai/ha, 0 to 100 scale where 0 is no effect and 100 is complete control
Please reply with the number alone, leaving off any unit.

N#Cc1cccc(Oc2ncc(Br)cn2)c1-n1cccn1: 10
Clc1cnc(Oc2cccc(Cl)c2-n2cc(Br)cn2)nc1: 70
FC(F)(F)c1cnn(-c2c(Cl)cccc2Oc2ncc(Br)cn2)c1: 50
FC(F)(F)c1cn(-c2ccccc2Oc2ncc(Cl)cn2)nn1: 100

Pending compound:
Qu. Tell me reported Morningglory plant response rating for `C#Cc1cnc(Oc2cccc(C#N)c2-n2cc(Br)cn2)nc1` , tested with morningglory.
Ans. 10

* * *

Test system: kochia
assay name: Test A postemergence
Format: in vivo, Kochia scoparia
conditions used: 31 g ai/ha, 0 to 100 scale, 0 no effect, 100 complete control
Field 'label' (enum: 1 / -1). Set to 1 when Plant response rating, Kochia is strictly under 50; else -1.

Solved entries (count: 5):
FCc1cccc(Oc2ncc(Cl)cn2)c1-n1cc(C(F)(F)F)cn1 [Compound 119]: -1
FCc1cccc(Oc2ncc(Cl)cn2)c1-n1cc(Cl)cn1 [Compound 250]: -1
FCc1cccc(Oc2ncc(Br)cn2)c1-n1cc(C(F)(F)F)cn1 [Compound 120]: -1
FCc1cccc(Oc2ncc(F)cn2)c1-n1cc(C(F)(F)F)cn1 [Compound 118]: -1
Cc1cc(C)n(-c2ccccc2Oc2ncc(Cl)cn2)n1 [Compound 264]: 1

Qu. For this molecule, is Plant response rating, Kochia lower than 50? NC(=O)c1cccc(Oc2ncc(Cl)cn2)c1-n1cc(C(F)(F)F)cn1 [Compound 278]
Ans. 1

Qu. For this molecule, is Plant response rating, Kochia lower than 50? Fc1cnc(Oc2cccc(Cl)c2-n2cc(OCC(F)(F)F)cn2)nc1 [Compound 109]
Ans. 1

Qu. For this molecule, is Plant response rating, Kochia lower than 50? CC(C)Oc1cnn(-c2c(C#N)cccc2Oc2ncc(F)cn2)c1 [Compound 158]
Ans. -1

* * *

Tested on: large (Lg) crabgrass
assay name: Test A preemergence
Assay type: in vivo, Digitaria sanguinalis
conditions used: 500 g ai/ha, 0 to 100 scale, 0 no effect, 100 complete control, approx. 10 days
endpoint name: Crabgrass, Large plant response rating

Below, each entry is followed by its recorded Crabgrass, Large plant response rating result.
COc1ccc(Oc2ncc(Cl)cn2)c(-n2cc(Br)cn2)c1 [Compound 42]: 30
Cc1ccc(Oc2ncc(Cl)cn2)c(-n2cc(Br)cn2)c1 [Compound 40]: 80

Qu. Item FC(F)(F)c1cnc(Oc2ccccc2-n2cc(C(F)(F)F)cn2)nc1 [Compound 17] has what recorded Crabgrass, Large plant response rating?
Ans. 90

Qu. Item FC(F)c1cnn(-c2ccccc2Oc2ncc(Br)cn2)c1 [Compound 81] has what recorded Crabgrass, Large plant response rating?
Ans. 100

Qu. Item Clc1cnc(Oc2ccccc2-n2cnc(Br)n2)nc1 [Compound 46] has what recorded Crabgrass, Large plant response rating?
Ans. 100

Qu. Item Cc1nn(-c2ccccc2Oc2ncc(Cl)cn2)cc1Br [Compound 37] has what recorded Crabgrass, Large plant response rating?
Ans. 80

* * *

System: corn
assay name: Test A postemergence
Assay type: in vivo, Zea mays
conditions used: 125 g ai/ha, 0 to 100 scale where 0 is no effect and 100 is complete control
Text: […]
endpoint name: Plant response rating, Corn
Please reply with the number alone, leaving off any unit.

Below, each entry is followed by its recorded Plant response rating, Corn result.
N#Cc1cccc(Oc2ncc(Cl)cn2)c1-n1cc(OCC(F)F)cn1 [Compound 99]: 90
CC(C)(C)c1cnn(-c2c(C#N)cccc2Oc2ncc(Cl)cn2)c1 [Compound 82]: 0
Cc1ccn(-c2ccccc2Oc2ncc(Cl)cn2)n1 [Compound 36]: 0

Qu. Item N#Cc1cccc(Oc2ncc(F)cn2)c1-n1cc(Cl)cn1 [Compound 73] has what recorded Plant response rating, Corn?
Ans. 40

Qu. Item Cc1nn(-c2ccccc2Oc2ncc(Cl)cn2)cc1Cl [Compound 38] has what recorded Plant response rating, Corn?
Ans. 0

Qu. Item Fc1cnc(Oc2cccc(C(F)F)c2-n2cc(Br)cn2)nc1 [Compound 112] has what recorded Plant response rating, Corn?
Ans. 30

Qu. Item Cc1nn(-c2ccccc2Oc2ncc(Cl)cn2)cc1Cl [Compound 39] has what recorded Plant response rating, Corn?
Ans. 0

Qu. Item Fc1cnc(Oc2cccc(Cl)c2-n2cc(OCC(F)(F)F)cn2)nc1 [Compound 109] has what recorded Plant response rating, Corn?
Ans. 40

Qu. Item N#Cc1cccc(Oc2ncc(Cl)cn2)c1-n1cnc(Br)c1 [Compound 74] has what recorded Plant response rating, Corn?
Ans. 30

Qu. Item N#Cc1cnn(-c2c(C#N)cccc2Oc2ncc(F)cn2)c1 [Compound 111] has what recorded Plant response rating, Corn?
Ans. 30
